This collection of values is drawn from ChEMBL document CHEMBL4392849.

# Target: Cholinesterase (Equus caballus)
# Sequence (P81908 whole entry): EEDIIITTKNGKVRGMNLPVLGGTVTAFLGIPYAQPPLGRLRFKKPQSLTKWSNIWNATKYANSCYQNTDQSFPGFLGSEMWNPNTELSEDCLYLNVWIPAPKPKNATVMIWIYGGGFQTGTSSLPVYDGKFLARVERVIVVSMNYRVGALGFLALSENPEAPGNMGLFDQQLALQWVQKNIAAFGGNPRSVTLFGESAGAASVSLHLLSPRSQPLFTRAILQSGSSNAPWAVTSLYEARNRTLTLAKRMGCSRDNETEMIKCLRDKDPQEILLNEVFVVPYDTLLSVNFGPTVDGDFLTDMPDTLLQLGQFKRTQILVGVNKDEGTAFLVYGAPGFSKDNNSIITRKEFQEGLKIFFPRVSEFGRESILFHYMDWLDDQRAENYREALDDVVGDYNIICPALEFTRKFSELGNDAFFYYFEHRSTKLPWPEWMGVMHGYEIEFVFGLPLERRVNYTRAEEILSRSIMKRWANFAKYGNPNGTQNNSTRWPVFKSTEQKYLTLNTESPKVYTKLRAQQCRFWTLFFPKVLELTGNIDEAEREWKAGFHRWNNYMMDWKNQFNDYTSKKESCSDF
# Protocol Details: Inhibition of equine serum BChE using butyrylthiocholine iodide as substrate preincubated for 15 mins followed by substrate addition by Ellman's method
# Type: single protein
Readout Name: IC50 (µM)
Express it in µM; write the number only.

Example cases with answers are listed next.
| Smiles | Readout Name | Result |
| --- | --- | --- |
| COc1cc2c(Nc3ccc(C)cc3)c([N+](=O)[O-])cnc2cc1OCCCN(C)Cc1ccccc1 | IC50 | 73.6 |
| COc1cc2c(Nc3cccc(Cl)c3)c([N+](=O)[O-])cnc2cc1OCCCN(C)Cc1ccccc1 | IC50 | 15.2 |

(Q) // lookup IC50 | system=Cholinesterase (Equus caballus) | key= `COc1cc2c(Nc3ccccc3C)c([N+](=O)[O-])cnc2cc1OCCCN(C)Cc1ccccc1`
(A) 29.7

(Q) // lookup IC50 | system=Cholinesterase (Equus caballus) | key= `COc1cc2c(Nc3ccccc3Cl)c([N+](=O)[O-])cnc2cc1OCCCN(C)Cc1ccccc1`
(A) 2.65

(Q) // lookup IC50 | system=Cholinesterase (Equus caballus) | key= `COc1ccc(Nc2c([N+](=O)[O-])cnc3cc(OCCCN(C)Cc4ccccc4)c(OC)cc23)cc1`
(A) 50.4
